methodSummary: Inhibition of endothelin-converting enzyme (unknown origin)
Parameters: species or system Homo sapiens
assayEndpoint: pIC50
Please express pIC50 as -log10 of the molar concentration.

Task: What value of measured pIC50 is listed for CC(C)C[C@H](NP(=O)(O)O[C@@H]1O[C@@H](C)[C@H](O)[C@@H](O)[C@H]1O)C(=O)N[C@@H](Cc1c[nH]c2ccccc12)C(=O)O ?
Result: 6.16

====

targetOrSystem: Thermolysin (Bacillus thermoproteolyticus)
Sequence (P00800 233-548 limits assumed): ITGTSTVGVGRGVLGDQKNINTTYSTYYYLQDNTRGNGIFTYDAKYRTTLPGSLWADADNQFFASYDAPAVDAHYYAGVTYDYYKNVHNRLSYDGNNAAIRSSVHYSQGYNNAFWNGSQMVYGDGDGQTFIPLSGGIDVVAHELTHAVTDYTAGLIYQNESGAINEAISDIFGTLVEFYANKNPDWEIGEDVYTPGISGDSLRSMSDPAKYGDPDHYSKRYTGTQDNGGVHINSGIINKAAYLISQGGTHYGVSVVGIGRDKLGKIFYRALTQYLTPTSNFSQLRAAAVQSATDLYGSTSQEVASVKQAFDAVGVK
methodSummary: Inhibition of Bacillus thermoproteolyticus thermolysin
assayEndpoint: pKi
// pKi is dimensionless: -log10 of concentration (M)

Task: pKi for CC(C)C[C@H](NP(=O)(O)O[C@@H]1O[C@@H](C)[C@H](O)[C@@H](O)[C@H]1O)C(=O)N[C@@H](Cc1c[nH]c2ccccc12)C(=O)O ?
Result: 7.49
